From: a protein production outcome set (Wang et al. 2014)

# assay remarks: label from the status in PepcDB records

| sequence | protein production |
| --- | --- |
| MSLDRPRCCLRGKECSINRFQQVESRWGYSGTSDRIRFSVNKRIFVVGFGLYGSIHGPTDYQVNIQIIHTDSNTVLGQNDTGFSCDGSASTFRVMFKEPVEVLPNVNYTACATLKGPDSHYGTKGMRKVTHESPTTGAKTCFTFCYAAGNNNGTSVEDGQIPEVIFYTEGHHHHHH | not failed |
| MLKPTHFVVAARVTLVLGGLAVAVLALGPFQGAERIVGLNDKAAHAIAFGGLLAVSFLAFPRMRRNDLAIAALVLGAGVEVAQLFGGRSASLLDWLADAAGVLTIYGASMIETVRKMAREQGDMTFAEIAATDRRRARRRAPAVFTPLVETPQTEHAPPLSFAQRAARRFPVS | failed |
| MCYAASKLWNVCNYERHHYKELGLEKYPDWYYQKKAHKGDLWYRQLPSQTAQETCKQLDKAWKSFYVLKKTGGIKEPNPPRFKQDNIPVTYMQMGIRHEKGSDQLRLSLPRDLKSYMEETYGIHEKFLYLENKIFRNMDHIKQLRIYPPENGTCELIVIYEIEEPEQLSQNGHYLSVDLGLHNLMTCYDSGNGRTFILGRKYLSLERYFHKEIARVQSVWYAQQSERGIKYPKSSKHIQRLYRKKQNAVKDYLHKTTRWIAEYCRKEDIRCVVVGDIRNIRKEKDMGHKTNQKFHGLPYNRLYIMLEYKLKLYGIQLIKQEESYTSQCSPLSPEVSKRHAEASNRKERGMYITDGVRFNADAVGAFNILRKHLSVSGKQKEMSVTGLKTPEIIKVAA | failed |
| QIDFQVLHDLRQKFPEVPEVVVSRCMLQNNNNLDACCAVLSQESTRYLYGEGDLNFSDDSGI | not failed |
| MTQAASAAPQSAHSAKWKWAKRAFTAFFFIAVPVLLFMLVKNLDWQEVKKALASYKASTLAIAAVVAFASYATYCGFDILARYYTRHKLSIKQIVPVTFVCYAFNLNLSSWVGGIALRYRLYSRLGLEVSTITRILSLSLITNWLGYMLLAGFVFSMRFLELPEEWSIGTTTLQLIGFGLLAVCFSYLLACRFSKKRSWTIRDQEFNLPSMKQALMQASLGALNWALMAAVIYTLLPDKAFYPAILGVLLISSIAGVITHIPAGLGVLETVFITLLSHQFSKGSLLAALIGYRAIYFLLPLMIALVVYLVLEKRAKKMGEKNQRRMGQEANS | failed |
| MEVVVVGDAQAMAGRVPTVMHVRCPDRLREGVYRQVLELLTDLSPVVQALPPTAALVELKGALRYHGSEVHRLGEVLRVRTLSRLGVDVRVGIGPSITIAATASAQVPLPGGVLTVAPDDVTDWLAPLPGEALHGLGPRQAGALHEYGIHTVGLLAAVSPETVQRLLGGKAGRLAADRARGRDPRPVVPRALPAAATVRMRFDRHVLDGADVRAALLDLVVQLGRLLRRRGQAARAVSLTLQFAGGGSWEKSRRLPEPSAHDEDLRTMAYRLIDAAGLQRGRLTGLFLKADDLVDADRVAQQISLDQAREARLVAEATVDRVRDKFGPGVIGPAATARRAS | failed |
| RGLRRGTLRIGSFGPTSSMRLLPALLARYRQQYPGIEVHIDEGPDEQVLQWLLERRVDIAFAVLPDPRFVCCPLVEDQMVAVLPAGHRLADRPRVTLAELCGEPFALSGAGSAELVMRLFQAARLQPNIRYRCGQLLSTLDTVARG | failed |
| MDKESVDTLFGMGLTAYQAKDYTKAIHALEHLREHDPSYTTLYSYLAKSYEENGEPEKAIAVLRDGLTQDEFNKEMFLEAGKLAVTLRLPEEAEEFYRQAIVLDEEFSEAIMQLNKLLLAKENYEGVIELVEGLGEEVISEPQIFWDVSVAYQETEQYNKAKANYELAYPHFTNNPTFLKEYGLFLREEGEHAKSQEVLRSYLELEPLEHHHHHH | not failed |
| MIIERLVGNLRDLNPLDFSVDHVDLEWFETRKKIARFKTRQGKDIAIRLKDAPKLGLSQGDILFKEEKEIIAVNILDSEVIHIQAKSVAEVAKICYEIGNRHAALYYGESQFEFKTPFEKPTLALLEKLGVQNRVLSSKLDSKERLTVSMPHSEPNFKVSLASDFKVVVK | not failed |
| MIYLFSHAGLRDLRDFIDRSTLFAFDLDGTLAPIVSDPAGIMIPPDVHERLVRLNGTASVAVVTGRARVDAARHLGFAPRFLVGNHGAEGLPGADAAEREFIGLCRGWMTQLGELLPEGEGTGIVMEDKSATLSLHYRNAPDRENAHQRILAAVSRLLPAPRRVSGKLVENLVPAAAPHKGDALRCIMRHLGCARALFVGDDVTDEDVFRLGDEAIFGIRVGNSGGSAARYFIRGQDEMAPLLDEILAVL | failed |
| MSLKTNFVKYERKDNKDLCEITLENDAGMAVKVLNYGATLEKVLLDGENMILSLNSPEDYSKERNFLGGTVGRIAGRVRAGQWKHGNEIHQLPLNDGDNHIHGGIGTDMHVWDFRPSCDSEHARVDLTLFDPDGNNDYPGNLKLHARYELDNENNLHYLLEAVSDKLTIFNPVNHTYFNLGERAEDLNLQMNADYYLPVDEAGLPDRGMAEVAGTAFDFRKTKRIGDALNSDDSQIKLRNGLDHPFILNGNNPAALLSSNKHRLIVKTNAPALVLYAGNHFNHTGIVNNIGQYDGITFEAQCPPAEGNDLGQITLLPFEKFKRTVDWKFEEGHHHHHH | not failed |
| SKEDTEITIQKIMDAVVDQLLRLGYDKMSYTTLSQQTGVSRTGISHHFPKKTDFTAALDGRIFKMFIEHLEFEKGLDAFSQSWIKALEDSEFLAILRLLFHHIVTSESAHEFAANGIDRLYKMVESQFGSGGDKELEWLIGRSLIQ | failed |
